The origin of these recorded values is patent US20230381328A1.

- subject-of-test: monoclonal antibody mAB 198
- protocol-notes: peptide microarray, fluorescence, cyclic peptide
Where no end group is shown, it is not given here.
parameter: relative signal [%] (%)
Give bare numbers, in %.

- binder: "GSLRWNPADYQ (also: cyclic peptide, mode of cyclisation not given here)"
  relative signal [%] / %: 9.7
- binder: "LRVNPADYG (also: cyclic peptide, mode of cyclisation not given here)"
  relative signal [%] / %: 45.1
- binder: "SLRVNPADY (also: cyclic peptide, mode of cyclisation not given here)"
  relative signal [%] / %: 26.5
- binder: "TLRWNPADY (also: cyclic peptide, mode of cyclisation not given here)"
  relative signal [%] / %: 9.9

Batch: relative signal [%] for all items listed.
1. LRINPADYG (also: cyclic peptide, mode of cyclisation not given here)
2. VRLRWNPADYS (also: cyclic peptide, mode of cyclisation not given here)

**Result**
[22.8, 10.5]

I would be grateful if you could provide relative signal [%] for each of the following entries.
1. GGSLRINPADY (also: cyclic peptide, mode of cyclisation not given here)
2. GGSLRYNPADY (also: cyclic peptide, mode of cyclisation not given here)
3. NPADYGD (also: cyclic peptide, mode of cyclisation not given here) [NPADYGD, cyclic mimotope]

**Result**
1: 25.4; 2: 11.5; 3: 12.6

**Query** Note down relative signal [%] recorded for VRLRGNPAD (also: cyclic peptide, mode of cyclisation not given here)
**Result** 9.9
